Test system: HCT-116
Procedure Summary: Cytotoxicity against human HCT-116 cells assessed as cell growth inhibition measured after 48 hrs by MTT assay
Assay type: functional, cell-based
Measurement Parameters: HCT-116, 48 h
This listing pairs compounds with measured IC50.
Form entry: value (µM) — number only.

O=C1C=CC[C@H](C[C@@H]2C[C@@H]3C[C@@](/C=C/c4ccccc4)(Oc4cc(O)c5c(c43)O[C@H](c3ccccc3)CC5=O)O2)O1 : 8.1
O=C1C=CC[C@H](C[C@@H]2C[C@@H]3C[C@@](CCc4ccccc4)(Oc4cc(O)c5c(c43)O[C@@H](c3ccccc3)CC5=O)O2)O1 : 6.9

Name the reported IC50 value associated with the compound O=C1C=CC[C@H](C[C@@H]2C[C@@H]3C[C@@](/C=C/c4ccccc4)(Oc4cc(O)c5c(c43)O[C@@H](c3ccccc3)CC5=O)O2)O1
9

Name the reported IC50 value associated with the compound O=C1C=CC[C@H](C[C@@H]2C[C@@H]3C[C@@](CCc4ccccc4)(Oc4cc(O)c5c(c43)O[C@H](c3ccccc3)CC5=O)O2)O1
6.4
